# TARGET_OR_SYSTEM: T1, human LAG3 expressed on cells (human, UniProt P18627 23-525)
# T1 sequence (looked up): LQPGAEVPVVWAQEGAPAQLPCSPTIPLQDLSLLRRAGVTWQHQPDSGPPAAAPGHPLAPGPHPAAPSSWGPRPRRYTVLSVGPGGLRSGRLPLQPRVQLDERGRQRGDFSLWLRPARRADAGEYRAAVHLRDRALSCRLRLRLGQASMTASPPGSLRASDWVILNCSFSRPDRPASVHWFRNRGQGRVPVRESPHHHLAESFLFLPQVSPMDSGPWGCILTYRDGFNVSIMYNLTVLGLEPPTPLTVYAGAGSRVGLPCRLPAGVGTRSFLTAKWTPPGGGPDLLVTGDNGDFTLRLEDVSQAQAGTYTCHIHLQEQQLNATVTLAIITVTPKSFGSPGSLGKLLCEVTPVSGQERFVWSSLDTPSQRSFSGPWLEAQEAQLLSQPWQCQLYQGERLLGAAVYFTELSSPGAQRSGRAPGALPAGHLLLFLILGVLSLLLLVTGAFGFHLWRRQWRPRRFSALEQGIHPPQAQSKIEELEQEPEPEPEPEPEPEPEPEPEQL
# PROCEDURE_SUMMARY: cell-based or functional assay
MEASURE_NAME: IL-2, % of BMS, at 0.015241579 ug/mL (%)
Your answer should be a plain number; it is taken to be in %.

BINDER	MEASURE_NAME	UNIT_ANNOTATION	VAL
combination of sdAbs 25 and 18 (other) VHH 1: QLQLVESGGGLVQAGGSLRLSCAASGSIESFSFMGWYRQAPGKQRELVAGFTGAASLSFSTYTDAVKGRFTISRDNAKNTVYLQMNSLKPEDTAVYFCNVDPWSQSWPGRYWGQGTQVTVSS VHH 2: QVQLVESGGGLVQPGGSLRLSCAASGFTLNEHAIGWFRRAPGKEREGVSCISSSDGSTYYHDSVKGRFNMSRDDAKNSVYLQMSSLKPEDTAIYYCAAALGRDCQGGQWKTSSWGQGTQVTVSS	IL-2, % of BMS, at 0.015241579 ug/mL	%	1.97
combination of sdAbs 25 and 2015 (other) VHH 1: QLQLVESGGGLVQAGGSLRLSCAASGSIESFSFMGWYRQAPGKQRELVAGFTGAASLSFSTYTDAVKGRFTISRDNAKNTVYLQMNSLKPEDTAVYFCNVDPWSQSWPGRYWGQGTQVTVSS VHH 2: QLQLVESGGGLAQTGGSLRLSCAAAGFTFDDTATGWFRQAPGKNREGVACISSSDGRIHYIDSAKGRFTISKDNAKKTVYLQMDSLKPEDTAVYYCAAARKGSTDCQGAIWGSWGQGTQVIVSS	IL-2, % of BMS, at 0.015241579 ug/mL	%	0.883

# evaluate next
IL-2, % of BMS, at 0.015241579 ug/mL for sdAb No. 18 (VHH, Fc of the tested form not described; also called sdAb 18; not shown: Fc part implied by anti-human Fc capture) VHH: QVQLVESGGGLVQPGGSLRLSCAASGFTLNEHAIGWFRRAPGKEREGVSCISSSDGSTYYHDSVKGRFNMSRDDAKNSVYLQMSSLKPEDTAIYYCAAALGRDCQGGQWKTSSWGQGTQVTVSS is 10.9

The reported measurements were obtained from patent US20230303690A1.
